# STUDY TARGET: T1, Rab8a_(1-176) (human, UniProt P61006 1-176)
# T1 sequence: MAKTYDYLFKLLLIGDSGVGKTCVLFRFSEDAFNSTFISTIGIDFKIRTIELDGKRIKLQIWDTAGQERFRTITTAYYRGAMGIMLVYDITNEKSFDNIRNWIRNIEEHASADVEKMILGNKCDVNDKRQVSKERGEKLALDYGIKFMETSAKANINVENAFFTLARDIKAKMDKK
# ASSAY NAME: SEC
PARAMETER: binding result

Use the examples below as a reference point.
1) bMERB K918A_E921A (domain or fragment) AEEAMKRFCKAQTIQRRLNEIEAALRELEAEGVKLELALRRQSSSPEQQKKLWVGQLLQLVDKKNSLVAEEAELMITVQELNLEEKQWQLDQELRGYMNREENLKTAADRQAEDQVLRKLVDLVNQRDALIRFQEERRLSELALGTGAQG | binds
2) bMERB_(M992A_I993A) (domain or fragment) KEEEMKRFCKAQTIQRRLNEIEAALRELEAEGVKLELALRRQSSSPEQQKKLWVGQLLQLVDKKNSLVAEEAELAATVQELNLEEKQWQLDQELRGYMNREENLKTAADRQAEDQVLRKLVDLVNQRDALIRFQEERRLSELALGTGAQG | binds
3) bMERB L974A_L975A (domain or fragment) KEEEMKRFCKAQTIQRRLNEIEAALRELEAEGVKLELALRRQSSSPEQQKKLWVGQAAQLVDKKNSLVAEEAELMITVQELNLEEKQWQLDQELRGYMNREENLKTAADRQAEDQVLRKLVDLVNQRDALIRFQEERRLSELALGTGAQG | binds
4) bMERB V1041A (domain or fragment) KEEEMKRFCKAQTIQRRLNEIEAALRELEAEGVKLELALRRQSSSPEQQKKLWVGQLLQLVDKKNSLVAEEAELMITVQELNLEEKQWQLDQELRGYMNREENLKTAADRQAEDQVLRKLVDLANQRDALIRFQEERRLSELALGTGAQG | binds

Look up and report measured binding result for this entry: bMERB V1038A (domain or fragment) KEEEMKRFCKAQTIQRRLNEIEAALRELEAEGVKLELALRRQSSSPEQQKKLWVGQLLQLVDKKNSLVAEEAELMITVQELNLEEKQWQLDQELRGYMNREENLKTAADRQAEDQVLRKLADLVNQRDALIRFQEERRLSELALGTGAQG binds

Look up and report measured binding result for this entry: bMERB L1011S (domain or fragment) KEEEMKRFCKAQTIQRRLNEIEAALRELEAEGVKLELALRRQSSSPEQQKKLWVGQLLQLVDKKNSLVAEEAELMITVQELNLEEKQWQLDQESRGYMNREENLKTAADRQAEDQVLRKLVDLVNQRDALIRFQEERRLSELALGTGAQG binds

Look up and report measured binding result for this entry: bMERB F925A (domain or fragment) KEEEMKRACKAQTIQRRLNEIEAALRELEAEGVKLELALRRQSSSPEQQKKLWVGQLLQLVDKKNSLVAEEAELMITVQELNLEEKQWQLDQELRGYMNREENLKTAADRQAEDQVLRKLVDLVNQRDALIRFQEERRLSELALGTGAQG binds
